Tested on: EOL-1
ASSAY_SUMMARY: IC50 (cell viability) (log10 M)
TEST_CONDITIONS: 4 days
Structures can show the parent of a compound that is named as a salt.
Decide using IC50 (log10 M) alone. Strictly below -7: Criterion met. Equal to or above -7: Criterion not met.

{"MOLECULE": "CC[C@H](C)C(=O)O[C@H]1C[C@H](O)C=C2C=C[C@H](C)[C@H](CC[C@@H](O)C[C@@H](O)CC(=O)O)[C@H]21", "ASSIGNED_LABEL": "Criterion not met"}
{"MOLECULE": "CN(C)C/C=C/C(=O)Nc1cc2c(Nc3ccc(F)c(Cl)c3)ncnc2cc1O[C@H]1CCOC1", "ASSIGNED_LABEL": "Criterion not met"}
{"MOLECULE": "Nc1nc2[nH]cnc2c(=S)[nH]1", "ASSIGNED_LABEL": "Criterion not met"}
{"MOLECULE": "CS(=O)(=O)c1ccc(C(=O)Nc2ccc(Cl)c(-c3ccccn3)c2)c(Cl)c1", "ASSIGNED_LABEL": "Criterion not met"}
{"MOLECULE": "Nc1ncnc2c1c(I)cn2[C@@H]1O[C@H](CO)[C@@H](O)[C@H]1O", "ASSIGNED_LABEL": "Criterion not met"}
{"MOLECULE": "CCCS(=O)(=O)Nc1ccc(F)c(C(=O)c2c[nH]c3ncc(-c4ccc(Cl)cc4)cc23)c1F", "ASSIGNED_LABEL": "Criterion not met"}
{"MOLECULE": "CC(C)CC(=O)Nc1n[nH]c2c1CN(C(=O)C1CCN(C)CC1)C2(C)C", "ASSIGNED_LABEL": "Criterion met"}
{"MOLECULE": "COc1cc2c(N3CCN(C(=O)Nc4ccc(OC(C)C)cc4)CC3)ncnc2cc1OCCCN1CCCCC1", "ASSIGNED_LABEL": "Criterion met"}
{"MOLECULE": "CN(Cc1cnc2nc(N)nc(N)c2n1)c1ccc(C(=O)N[C@@H](CCC(=O)O)C(=O)O)cc1 [Methotrexate]", "ASSIGNED_LABEL": "Criterion not met"}
{"MOLECULE": "Cn1cncc1[C@@](N)(c1ccc(Cl)cc1)c1ccc2c(c1)c(-c1cccc(Cl)c1)cc(=O)n2C", "ASSIGNED_LABEL": "Criterion met"}
{"MOLECULE": "CC[C@H](Nc1ncnc2[nH]cnc12)c1nc2cccc(F)c2c(=O)n1-c1ccccc1", "ASSIGNED_LABEL": "Criterion not met"}
{"MOLECULE": "CO[C@H]1C[C@@H]2CC[C@@H](C)[C@@](O)(O2)C(=O)C(=O)N2CCCC[C@H]2C(=O)O[C@H]([C@H](C)C[C@@H]2CC[C@@H](OC(=O)C(C)(CO)CO)[C@H](OC)C2)CC(=O)[C@H](C)/C=C(\\C)[C@@H](O)[C@@H](OC)C(=O)[C@H](C)C[C@H](C)/C=C/C=C/C=C/1C", "ASSIGNED_LABEL": "Criterion met"}
{"MOLECULE": "CO[C@@]12[C@H](COC(N)=O)C3=C(C(=O)C(C)=C(N)C3=O)N1C[C@@H]1N[C@@H]12", "ASSIGNED_LABEL": "Criterion met"}
{"MOLECULE": "CN[C@@H]1C[C@H]2O[C@@](C)([C@@H]1OC)n1c3ccccc3c3c4c(c5c6ccccc6n2c5c31)C(=O)NC4", "ASSIGNED_LABEL": "Criterion met"}
{"MOLECULE": "c1cc(-c2sc(-c3ccncc3)c(-c3ccncc3)c2-c2ccncc2)ccn1", "ASSIGNED_LABEL": "Criterion not met"}
{"MOLECULE": "CS(=O)(=O)OCCCCOS(C)(=O)=O", "ASSIGNED_LABEL": "Criterion not met"}
{"MOLECULE": "Cc1ccc(NC(=O)c2ccc(CN3CCN(C)CC3)cc2)cc1Nc1nc(-c2cccnc2)cs1", "ASSIGNED_LABEL": "Criterion met"}
{"MOLECULE": "C[C@@]1(C(=O)Nc2ccc(F)nc2)CCCN1c1nc(Nc2cc(C3CC3)n[nH]2)c2cccn2n1", "ASSIGNED_LABEL": "Criterion not met"}
{"MOLECULE": "CN(C)C1CCN(C(=O)c2ccc(NC(=O)Nc3ccc(-c4nc(N5CCOCC5)nc(N5CCOCC5)n4)cc3)cc2)CC1", "ASSIGNED_LABEL": "Criterion met"}
{"MOLECULE": "CS(=O)(=O)CCNCc1ccc(-c2ccc3ncnc(Nc4ccc(OCc5cccc(F)c5)c(Cl)c4)c3c2)o1", "ASSIGNED_LABEL": "Criterion not met"}
{"MOLECULE": "Nc1cc(C(F)(F)F)c(-c2cc(N3CCOCC3)nc(N3CCOCC3)n2)cn1", "ASSIGNED_LABEL": "Criterion not met"}
{"MOLECULE": "Cc1ccc(S(=O)(=O)/C=C/C#N)cc1", "ASSIGNED_LABEL": "Criterion not met"}
{"MOLECULE": "CCC1=C[C@@H]2CN(C1)Cc1c([nH]c3ccccc13)[C@@](C(=O)OC)(c1cc3c(cc1OC)N(C)[C@H]1[C@@](O)(C(=O)OC)[C@H](OC(C)=O)[C@]4(CC)C=CCN5CC[C@]31[C@@H]54)C2 [Vinorelbine tartrate]", "ASSIGNED_LABEL": "Criterion met"}
